assay: Serum fatty acid metabolomics (UPLC-MS/MS), feeding study; details: in vivo
Reported serum concentration 18 wk / 0 wk by item:
Answer with the value's number alone.

INSERT INTO results (molecule, experimentalresult) VALUES
  ('CC/C=C\C/C=C\C/C=C\CCCCCCCCCCCC(=O)O [docosatrienoate (22:3n3), docosatrienoate]', 1.96),
  ('C=CCCCCCCCCC(=O)O [10-undecenoate (1 l:ln1), 10-undecenoate]', 1.22);

Request the reported serum concentration 18 wk / 0 wk associated with CCCCC/C=C\C/C=C\C/C=C\C/C=C\CCCCCC(=O)O [adrenate (22:4n6), all-cis-7,10,13,16-docosatetraenoic acid] 2.82

Request the reported serum concentration 18 wk / 0 wk associated with CC/C=C\C/C=C\C/C=C\C/C=C\CCCCC(=O)O [stearidonate (18:4n3), stearidonate] 0.61
